Hey, just so you know, these numbers are from patent US6818749.

TESTED ON: anti-CC49 variable region (anti-idiotypic) antibodies in the serum of patient six
TEST METHOD NOTES: HPLC size exclusion; 5 µg cold competitor + ^125I-HuCC49 + patient serum; less complex = more competition
# percent of complexes annotations

| BINDER | percent of complexes |
| --- | --- |
| HuCC49 CDR variant L-1 (antibody, V domains shown) VH: QVQLVQSGAEVVKPGASVKISCKASGYTFTDHAIHWVKQNPGQRLEWIGYFSPGNDDFKYNERFKGKATLTADTSASTAYVELSSLRSEDTAVYFCTRSLNMAYWGQGTLVTVSS VL: DIVMSQSPDSLAVSLGERVTLNCKSSQSVLYSSNSKNYLAWYQQKPGQSPKLLIYWASARESGVPDRFSGSGSGTDFTLTISSVQAEDVAVYYCQQYYSYPLTFGAGTKLELK | 16% |
| HuCC49 CDR variant H-3 (antibody, V domains shown) VH: QVQLVQSGAEVVKPGASVKISCKASGYTFTDHAIHWVKQNPGQRLEWIGYFSPGNDDFKYNERFKGKATLTADTSASTAYVELSSLRSEDTAVYFCTRGGYYGSGSGSNYWGQGTLVTVSS VL: DIVMSQSPDSLAVSLGERVTLNCKSSQSLLYSGNQKNYLAWYQQKPGQSPKLLIYWASARESGVPDRFSGSGSGTDFTLTISSVQAEDVAVYYCQQYYSYPLTFGAGTKLELK | 7.3% |
| HuCC49 CDR variant L-1,2 (antibody, V domains shown) VH: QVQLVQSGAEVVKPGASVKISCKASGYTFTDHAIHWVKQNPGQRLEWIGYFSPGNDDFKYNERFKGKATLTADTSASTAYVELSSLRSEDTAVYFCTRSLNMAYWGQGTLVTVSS VL: DIVMSQSPDSLAVSLGERVTLNCKSSQSVLYSSNSKNYLAWYQQKPGQSPKLLIYWASTRESGVPDRFSGSGSGTDFTLTISSVQAEDVAVYYCQQYYSYPLTFGAGTKLELK | 24.6% |
| HuCC49 CDR variant H-1 (antibody, V domains shown) VH: QVQLVQSGAEVVKPGASVKISCKASGYTFTSYAMHWVKQNPGQRLEWIGYFSPGNDDFKYNERFKGKATLTADTSASTAYVELSSLRSEDTAVYFCTRSLNMAYWGQGTLVTVSS VL: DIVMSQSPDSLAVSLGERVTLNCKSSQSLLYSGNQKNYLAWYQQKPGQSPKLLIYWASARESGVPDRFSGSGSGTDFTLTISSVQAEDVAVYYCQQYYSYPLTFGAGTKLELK | 10.2% |
| HuCC49 CDR variant H-2 (antibody, V domains shown) VH: QVQLVQSGAEVVKPGASVKISCKASGYTFTDHAIHWVKQNPGQRLEWIGWINAGNGNTKYSQKFQGKATLTADTSASTAYVELSSLRSEDTAVYFCTRSLNMAYWGQGTLVTVSS VL: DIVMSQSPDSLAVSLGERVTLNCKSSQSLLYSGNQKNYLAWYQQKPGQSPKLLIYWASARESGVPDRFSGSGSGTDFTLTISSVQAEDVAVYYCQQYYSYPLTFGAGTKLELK | 32.7% |
